Source of measurements: PubChem BioAssay (NCI)

# Test system: K-562 leukemia
# protocol.description: NCI tumour cell line growth inhibition, 48 h
value.type: TGI

Before answering, review these 5 worked examples.
CC(C)CCNC(=O)c1ccc(CNC(=O)/C=C/c2ccc(OCc3ccccc3)cc2)cc1 :: > 100 µM
Cc1cccc2c3ccc4c(c3n(C)c12)C(=O)C=CC4=O :: > 100 µM
CCOP(=O)(OCC)/C(F)=C/c1ccccc1 :: > 100 µM
CN1CN(c2ccccc2)C2(CCN(CCCC3(c4cccs4)OCCO3)CC2)C1=O :: > 100 µM
OCc1ccccc1C1CSCSC1 :: > 100 µM

We now examine a further compound.
Kindly note the recorded TGI for Cc1nc2cc(C(F)(F)F)ccc2[nH]c1=O , which is > 100 µM

====

# Tested on: MDA-N
# protocol.description: NCI tumour cell line growth inhibition, 48 h
I'd be grateful if you could share measured TGI for these entries.

For orientation, consider the following solved cases.
O=C(O)CNC(=O)c1ccc([As](=O)(O)O)cc1 :: > 100 µM
C=CC/C(C(=O)OC)=C(/C(=O)OC)N(CCC)CCC :: > 100 µM
CN(C)c1ccc(/C(Br)=C2\OC(=O)c3ccccc32)cc1 :: > 100 µM
CCN(CC)CCCn1c(=O)c2cccnc2n2c3c(=O)n(C)c(=O)n(C)c3nc12 :: > 100 µM
CC1=CC(=O)N(n2c(C)n[nH]c2=O)C1=O :: > 100 µM
N#Cc1cnn2ccn(C3OC(COC(=O)c4ccccc4)C(OC(=O)c4ccccc4)C3OC(=O)c3ccccc3)c12 (stereo not given) :: > 21.5 µM
COC(=O)C1CC(C=[N+](C)C)=C(SC)N1 (stereo not given) :: > 100 µM
O=C1/C(=C/c2ccc(Br)s2)NC(=S)N1CN1CCOCC1 :: > 100 µM

Record TGI per entry; entries follow.
1. O=C1CC(c2ccc([N+](=O)[O-])cc2)C2(C(=O)NC(=S)NC2=O)C(c2ccc([N+](=O)[O-])cc2)C1 (stereo not given)
2. COC(c1ccc(C(C)(C)C)cc1)(c1ccc(C(C)(C)C)cc1)c1cc(C(O)(c2cc(C(OC)(c3ccc(C(C)(C)C)cc3)c3ccc(C(C)(C)C)cc3)c(C)cc2C)c2cc(C(OC)(c3ccc(C(C)(C)C)cc3)c3ccc(C(C)(C)C)cc3)c(C)cc2C)c(C)cc1C
3. N#Cc1c(OCCF)c2ccccc2n2c1nc1ccccc12
4. CCN(CCCN(CC)C(=O)N[C@@H](Cc1ccccc1)C(=O)NC)C(=O)N[C@@H](Cc1ccccc1)C(=O)NC
5. C/C(=N/NC(=S)Nc1cccc(C)c1)c1ccccn1
6. O=c1nc2c(c(-c3cccc(Cl)c3)[nH]1)COC/C2=C\c1cccc(Cl)c1
7. CCOc1ccc2nc(NC(=O)/C(CC(=O)CC(C3=C(O)c4ccccc4CC3=O)c3ccccc3)=N\O)sc2c1 (stereo not given)
8. CCOC(=O)C1CC(O)C(=O)N1C (stereo not given)

1. > 100 µM
2. > 100 µM
3. > 100 µM
4. > 100 µM
5. 3.61 µM
6. > 100 µM
7. > 100 µM
8. > 100 µM

# batch size: 2; output TGI per entry
1. O=C(/C=C/c1cccs1)c1ccc(Cl)cc1
2. O=C(O)/C=C/C(=O)Nc1ncn[nH]1

1. > 100 µM
2. > 100 µM

I have 2 molecules here; please give me TGI for each one.
1. Cc1cccc(C[C@@]2(SCc3ccccc3)C(C)(C)[C@@H]3CC[C@@]2(C)C3)n1
2. CC(=O)/C(=C/n1c(=S)sc2ccccc21)C(=O)Nc1ccccc1C

60.2 µM
> 100 µM

====

# Test system: CAKI-1 renal
# protocol.description: NCI tumour cell line growth inhibition, 48 h; in the data active = GI50 below about 0.43 µM; inactive = the rest
Your reply should match one of these outcome classes. active, inactive

COc1nc2c(cc1S(=O)(=O)c1ccccc1)CCc1c-2cnn1-c1ccccc1Cl :: inactive
Cn1c(-c2nonc2N)nc2cnccc21 :: inactive
CNC(=O)c1cc(Oc2ccc3c(c2)sc2nc(-c4ccc(N)cc4)cn23)ccn1 :: active
Clc1cccc(NC=Nc2ccc(-c3nc4ccccc4s3)cc2)c1 :: inactive

Each molecule tested received a call. Report the one for CC[n+]1ccc2c(c1)C(=O)c1nccc3c1c-2nc1ccccc13 .
inactive

What is the recorded call for this molecule in the test? COc1cc2c(c(OC)c1OC)-c1ccc(NCc3ccccc3)c(=O)cc1[C@@H](NC(C)=O)CC2
inactive

For CN(C)CCNc1nc2ccccc2c2[nH]c3ccccc3c12 , which call appears in the assay record?
active

Test call for this molecule, please: S=C1NCCN1C1=Nc2ccccc2CO1
inactive

====

# Test system: A549 NSCLC
# protocol.description: NCI tumour cell line growth inhibition, 48 h
value.type: TGI

OC(c1cccc(C(F)(F)F)c1)c1cnccc1NC1CCCCCC1 (stereo not given) :: 11.4 µM
C(=Nc1ccc(-c2nc3ccccc3s2)cc1)c1ccco1 :: > 100 µM
COC(=O)c1c(OC)cccc1C(=O)O :: > 100 µM
CCOc1ccc2nc(NC(=O)/C(CC(=O)CC(C3=C(O)c4ccccc4CC3=O)c3ccccc3)=N\O)sc2c1 (stereo not given) :: > 100 µM

Kindly give each listed record's TGI.
1. CC(=O)c1ccc(N(/C=C/C(=O)C(F)(F)F)CC(=O)c2ccc(Cl)c(Cl)c2)cc1
2. CN1C(=O)CN(NC(=O)C2=C(O)c3ccc(Br)cc3S(=O)(=O)N2)C1=S
3. O=C(O)/C=C/C(=O)Nc1ncn[nH]1
4. CC1=C2[C@@H](CC1)[C@]1(C)O[C@@](C(C)C)(C[C@H]1OC(=O)[C@H](C)O)[C@H]2OC(=O)/C=C/c1ccccc1
5. N#Cc1c(OCCF)c2ccccc2n2c1nc1ccccc12
6. CN1CN(c2ccccc2)C2(CCN(CCCC3(c4cccs4)OCCO3)CC2)C1=O

["33.5 µM", "> 100 µM", "> 100 µM", "28.9 µM", "> 100 µM", "> 100 µM"]

====

# Tested on: HOP-62 NSCLC
# protocol.description: NCI tumour cell line growth inhibition, 48 h
Please respond with reported GI50 for every item in the list.

Please review the following examples before continuing.
O=C1c2ccccc2C(=O)c2c1ccc1[nH]c(CCl)nc21 :: 3.12 µM
OC(c1cccc(C(F)(F)F)c1)c1cnccc1NC1CCCCCC1 (stereo unspecified) :: 1.89 µM
NNC(=O)c1cnn(-c2ccnc3c(C(F)(F)F)cccc23)c1N :: > 100 µM

I would be grateful if you could provide GI50 for each of the following entries.
1. S=C1NCCN1C1=Nc2ccccc2CO1
2. O=C(Cc1ccc(/C=C/C(=O)c2ncc[nH]2)cc1)Nc1ccc(Cl)cc1
3. CC1=C(CCCOC(=O)NCCCl)C2=C(C)C3(CC3)[C@@](C)(O)C(=O)C2=C1
4. O=C1CSC(N2CCN(c3cccc(Cl)c3)CC2)=N1
5. Cc1c(Cl)cccc1Nc1ncccc1C(=O)O
6. NS(=O)(=O)c1ccc(-n2nc(-c3ccc(Br)cc3)ccc2=O)cc1

1: > 100 µM; 2: 3.19 µM; 3: 2.37 µM; 4: > 100 µM; 5: > 100 µM; 6: > 10 µM

Would you mind giving GI50 for every molecule in the list below?
1. ClCc1ccccc1CSc1ncnc2nc[nH]c12
2. COc1ccc(CN2CCCC(C(=O)c3ccc(C(F)(F)F)cc3)C2)c(O)c1 (stereo unspecified)

["> 60 µM", "29.1 µM"]

====

Consider the following compounds; for each one, report its TGI.
# Tested on: A549 NSCLC
# protocol.description: NCI tumour cell line growth inhibition, 48 h

Please review the following examples before continuing.
NNC(=O)c1cnn(-c2ccnc3c(C(F)(F)F)cccc23)c1N :: > 100 µM
Brc1ccc2c3c1[C@@H]1O[C@@H]1c1cccc(c1-3)[C@@H]1O[C@H]21 :: > 92.1 µM
CN=C1NC(=O)/C(=C/c2ccc3ncccc3c2)S1 :: > 25 µM
CN(C)c1ccc(/C(Br)=C2\OC(=O)c3ccccc32)cc1 :: > 100 µM
CC(=O)CC(=O)c1cc2c(=O)oc(C)cc2oc1=O :: > 37.5 µM
C[C@]12CC/C(=N\O)C=C1CC[C@@H]1[C@@H]2CC[C@]2(C)C(=N/O)/C(=C/c3cccnc3)C[C@@H]12 :: 59.8 µM

List the reported TGI of each compound below.
1. CC(C)=CC1C(C(=O)O)C1(C)C (stereo unspecified)
2. CC(=O)OCCc1cccnc1/C=N/O
3. Cn1c(-c2nonc2N)nc2cnccc21
4. COC(=O)CCCC(=O)C(=Nc1c(Cl)cccc1Cl)NNc1ccc(Cl)cc1
5. Clc1ccc(Cc2nc3cc4ccccc4cc3[nH]2)cc1

1: > 750 µM; 2: > 100 µM; 3: > 25 µM; 4: > 100 µM; 5: > 100 µM
